Tested on: Colon cancer organoid
Experiment: Targeting of F14 CAF-induced therapy resistance in O23 CRC organoid-stroma co-culture. Cell viability is reported without Gefitinib.
Assay type: functional, Homo sapiens
Details: Homo sapiens, Concentration 10 uM; read-out: Cell Viability
MEASURED_PARAMETER: viability at 10 µM (%)
Give just the number in %; leave the unit off.

Q: Query (compound): "CCOC(=O)CCNc1cc(N2CCc3ccccc3CC2)nc(-c2ccccn2)n1" ; field requested: viability at 10 µM
Ans: 155

Q: Query (compound): "CN(C)C(=O)Cn1cc(-c2nc(C3(c4ccc(-c5cnc(N)nc5)cc4)CC3)no2)cn1" ; field requested: viability at 10 µM
Ans: 171

Q: Query (compound): "Cn1nc(C(F)(F)F)cc1-c1cnc(N2CCc3cc(S(=O)(=O)Nc4c(F)cc(Cl)cc4F)cc(N4CCCC4=O)c32)nc1" ; field requested: viability at 10 µM
Ans: 133

Q: Query (compound): "NS(=O)(=O)c1cc(NC(=O)Cc2ccccc2)ccc1Oc1cccc(Cl)c1" ; field requested: viability at 10 µM
Ans: 114

Q: Query (compound): "CC(C)C(=O)Nc1n[nH]c2cc(-c3cccc(NS(=O)(=O)C4CC4)c3)ccc12" ; field requested: viability at 10 µM
Ans: 115

Q: Query (compound): "CC1=C(C#N)C(c2ccc3c(c2)c(NC(=O)c2ccccc2C)nn3C)C(C#N)=C(C)N1" ; field requested: viability at 10 µM
Ans: 103

Q: Query (compound): "CC1CCN(c2ccnc(NCc3cn(C)cn3)n2)CC1" ; field requested: viability at 10 µM
Ans: 107

Q: Query (compound): "CCOc1ccc(S(=O)(=O)Nc2ccc(Cl)cc2C#Cc2cnc(C(=O)O)cc2OC)c2ncccc12" ; field requested: viability at 10 µM
Ans: 95.3

Q: Query (compound): "CN(C)C(=O)c1sc2nc(N3CCC(S(C)(=O)=O)CC3)cc(C(F)(F)F)c2c1N" ; field requested: viability at 10 µM
Ans: 83.8

Q: Query (compound): "CN(C)CCCOc1ccc(-c2cc(NCCCn3cccn3)nc(S(C)(=O)=O)n2)cc1" ; field requested: viability at 10 µM
Ans: 0.601

Q: Query (compound): "CCN(Cc1ccc(Cl)cc1)c1ncc(C(=O)NCCCN2CCCC2=O)c(NC2CCCC2)n1" ; field requested: viability at 10 µM
Ans: 105

Q: Query (compound): "CCNC(=O)c1cc2c(N3CCOC[C@@H]3C)ccnc2n1C" ; field requested: viability at 10 µM
Ans: 104

Q: Query (compound): "COc1cc(Nc2nc(C)cc(-c3cnn4nc(OC)ccc34)n2)cc(C(F)(F)F)c1" ; field requested: viability at 10 µM
Ans: 119

Q: Query (compound): "CN1CCN(C(=O)C(C)(C)c2ccc(C(=O)Nc3cn4cc(-c5cc(C(C)(C)C)cc(C(C)(C)C)c5)ccc4n3)cc2)CC1" ; field requested: viability at 10 µM
Ans: 81.4

Q: Query (compound): "Cc1cc(C)cc([C@H]2c3cc(C)ccc3NC(=O)CN2C(=O)c2ccc(Br)s2)c1" ; field requested: viability at 10 µM
Ans: 84.3

Q: Query (compound): "COc1ccc2c(c1)O[C@H](c1ccc(OC)c(OC)c1)C[C@@H]2NC(=O)C1(c2ccc3c(c2)OC(F)(F)O3)CC1" ; field requested: viability at 10 µM
Ans: 111

Q: Query (compound): COc1cccc2c1C(=O)c1c(O)c3c(c(O)c1C2=O)CC(O)(C(=O)CO)CC3OC1CC(N)C(O)C(C)O1 (centres undefined) ; field requested: viability at 10 µM
Ans: 3.9

Q: Query (compound): "Cc1noc(C)c1-c1cnc2c(-c3ccc(C(=O)O)cc3)cn([C@@H](C)c3ccccn3)c2c1" ; field requested: viability at 10 µM
Ans: 109

Q: Query (compound): "Cc1c(NC(=O)c2cc(C(N)=O)nc3cc(F)ccc23)c(C(F)(F)F)nn1Cc1ccc(C#N)cc1" ; field requested: viability at 10 µM
Ans: 43.8
